The origin of these recorded values is ChEMBL document CHEMBL3860099.

Kindly supply the reported IC50 values for the records listed here.
# assay.remarks: Cytotoxicity against doxorubicin-resistant human K562R cells incubated for 72 hrs by CellTiter 96 aqueous one solution reagent based assay
# Format: functional, cell-based
# condition.context: k-562r
Numbers only, in µmol.

# smiles.code, IC50 / µmol
rows = [
    ("CC[C@]1(O)C[C@@H]2CN(CCc3c([nH]c4ccccc34)[C@@](C(=O)OC)(c3cc4c(cc3OC)N(C)[C@H]3[C@@](O)(C(=O)OC)[C@H](OC(C)=O)[C@]5(CC)C=CCN6CC[C@]43[C@@H]65)C2)C1", 0.48),
]

What value of IC50 has been recorded for this entry: CCC1=C[C@@H]2CN(C1)Cc1c([nH]c3ccccc13)[C@@](C(=O)OC)(c1cc3c(cc1OC)N(C)[C@H]1[C@@](O)(C(=O)OC)[C@H](OC(C)=O)[C@]4(CC)C=CCN5CC[C@]31[C@@H]54)C2
0.41
